# MEASUREMENT DESCRIPTION: Aqueous solubility of the compound
# Type: physicochemical
# TEST CONDITIONS: water (aqueous)
ENDPOINT NAME: solubility (µg/mL)

[1] CC(=O)Nc1nc(C)c(-c2cnc(-c3cccnc3)o2)s1
[2] CC(=O)Nc1nc(C)c(-c2cnc(C(C)(C)C)o2)s1
Sort 1 and 2 by solubility descending and give the first. Refer to your chosen entry by its label in the reply. 2

---

# STUDY SYSTEM: Phosphatidylinositol 4,5-bisphosphate 3-kinase catalytic subunit gamma isoform (Homo sapiens, UniProt P48736)
# Sequence (P48736 whole entry, canonical isoform): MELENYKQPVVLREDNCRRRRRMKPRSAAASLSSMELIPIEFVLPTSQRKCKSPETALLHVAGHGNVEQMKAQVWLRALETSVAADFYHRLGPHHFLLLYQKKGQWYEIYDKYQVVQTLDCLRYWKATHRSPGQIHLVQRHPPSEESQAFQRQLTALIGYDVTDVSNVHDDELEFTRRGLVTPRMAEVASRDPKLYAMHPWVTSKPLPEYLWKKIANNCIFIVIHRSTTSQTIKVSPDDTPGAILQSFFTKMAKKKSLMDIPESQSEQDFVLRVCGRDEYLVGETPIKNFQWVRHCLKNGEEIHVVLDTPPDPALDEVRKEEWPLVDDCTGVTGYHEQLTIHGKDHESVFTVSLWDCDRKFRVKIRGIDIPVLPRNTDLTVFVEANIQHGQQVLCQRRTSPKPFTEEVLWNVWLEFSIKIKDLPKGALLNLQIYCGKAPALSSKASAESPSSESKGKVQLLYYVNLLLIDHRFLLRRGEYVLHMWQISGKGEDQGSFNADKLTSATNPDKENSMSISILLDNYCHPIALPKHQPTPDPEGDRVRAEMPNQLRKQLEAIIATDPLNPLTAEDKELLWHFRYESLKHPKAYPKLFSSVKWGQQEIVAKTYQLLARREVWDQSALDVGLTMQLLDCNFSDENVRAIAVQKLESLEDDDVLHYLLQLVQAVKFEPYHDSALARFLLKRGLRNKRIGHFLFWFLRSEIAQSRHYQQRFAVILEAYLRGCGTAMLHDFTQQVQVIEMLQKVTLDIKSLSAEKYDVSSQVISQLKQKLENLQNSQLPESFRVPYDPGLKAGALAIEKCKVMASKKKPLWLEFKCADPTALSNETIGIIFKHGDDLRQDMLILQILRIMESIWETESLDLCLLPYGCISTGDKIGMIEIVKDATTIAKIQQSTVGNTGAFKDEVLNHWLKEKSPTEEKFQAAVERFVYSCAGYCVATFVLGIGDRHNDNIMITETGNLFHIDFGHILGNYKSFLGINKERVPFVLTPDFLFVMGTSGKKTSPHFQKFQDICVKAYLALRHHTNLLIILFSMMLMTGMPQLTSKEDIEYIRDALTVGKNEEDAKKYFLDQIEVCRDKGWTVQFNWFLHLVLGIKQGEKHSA
# MEASUREMENT DESCRIPTION: Inhibition of human PI3Kgamma using phosphatidylinositol as substrate and [33gammaP]ATP after 2 hrs by scintillation counting
ENDPOINT NAME: IC50 (nM)

Recorded IC50, per entry:
| MOLECULE | IC50 [nM] |
| --- | --- |
| CC(=O)Nc1nc(C)c(-c2cnc(Nc3cccnc3)o2)s1 | 12 |
| CC(=O)Nc1nc(C)c(-c2cnc(Nc3cccc(C(=O)O)c3)o2)s1 | 12 |
| CC(=O)Nc1nc(C)c(-c2cnc(-c3cccnc3)o2)s1 | 3 |
| COc1ncc(-c2sc(NC(C)=O)nc2C)o1 | 250 |
| CC(=O)Nc1nc(C)c(-c2cnc(CO)o2)s1 | 161 |
| CC(=O)Nc1nc(C)c(-c2cnc(C(C)(C)O)o2)s1 | 25 |
| CC(=O)Nc1nc(C)c(-c2cnc(CC(F)(F)F)o2)s1 | 10 |
| CC(=O)Nc1nc(C)c(-c2cnc(Nc3ccc(Cl)cc3)o2)s1 | 346 |

[I] CC(=O)Nc1nc(C)c(-c2cnc(N(C)C)o2)s1
[II] CC(=O)Nc1nc(C)c(-c2cnc(C)o2)s1
[III] CC(=O)Nc1nc(C)c(-c2cnc(Oc3cccnc3)o2)s1
# sort list by recorded IC50, greatest to least // format: requested-order list of labels II, III, I
(II: 181 nM, III: 117 nM, I: 46 nM)
